Test system: Avena fatua (AVEFA)
Assay: Example B pre-emergence herbicidal test, glasshouse
Type: in vivo
Conditions: 312 h, rate 250 g/ha, evaluated after 13 days, 100=total damage to plant, 0=no damage to plant
Hi there, I'd appreciate the recorded pest or weed control at 250 g/ha for every entry that follows.
Write the number in % without appending the unit.

Please give the measured pest or weed control at 250 g/ha for this compound: CCc1sc(-c2ccc(Cl)cc2)nc1C1C(=O)C2CCC(C)(O2)C1=O (stereo not shown) 90

Can you handle `CCc1sc(-c2ccc(Br)cn2)nc1C1C(=O)C(C)(C)OC(C)(C)C1=O` next? 20

Now this one: `Cc1sc(-c2ccc(Br)cn2)nc1C1=C(OC(=O)C(C)(C)C)C(C)(C)OC(C)(C)C1=O` 0

Same thing, different compound: `Cc1sc(-c2ccc(Br)cn2)nc1C1C(=O)C(C)(C)OC(C)(C)C1=O` 0

----------
Test system: Lolium perenne (LOLPE)
Test: Example A pre-emergence herbicidal test, glasshouse
Assay type: in vivo
Conditions: rate 250 g/ha, evaluated after 20 days, 100=total damage to plant, 0=no damage to plant
Protocol: Seeds of a variety of test species were sown in standard soil in pots. […] The test plants were then grown in a greenhouse under optimum conditions until, 14 or 15 days later for post-emergence and 20 days for pre-emergence, the test was evaluated (100=total damage to plant; 0=no damage to plant). […]
readout kind: Pre-Emergence Activity LOLPE
Keep it simple and answer with nothing but the number.

Look up Pre-Emergence Activity LOLPE for this compound: Cc1[se]c(-c2ccc(Cl)cc2)nc1C1C(=O)C(C)(C)OC(C)(C)C1=O [Compound T16] 100

Then this compound: Cc1sc(-c2ccc(Cl)cc2)cc1C1C(=O)C(C)(C)OC(C)(C)C1=O [Compound T12] 0

Next: CCc1sc(-c2ccc(Cl)cc2)nc1C1C(=O)C(C)(C)C(=O)C(C)(C)C1=O [Compound T6] 80

What about Cc1sc(-c2ccc(Cl)cc2)nc1C1C(=O)C(C)(C)OC(C)(C)C1=O [Compound T13] ? 100

Record: CCc1sc(-c2ccc(Cl)cc2)nc1C1C(=O)C(C)(C)OC(C)(C)C1=O [Compound T11] 100

----------
Tested on: Amaranthus retoflexus (AMARE)
Assay: Example B pre-emergence herbicidal test, glasshouse
Assay type: in vivo
Settings: Amaranthus retroflexus, 312 h, rate 250 g/ha, evaluated after 13 days, 100=total damage to plant, 0=no damage to plant
Would you mind telling me the reported pest or weed control at 250 g/ha of each entry?

Requested read-out: pest or weed control at 250 g/ha. Entry: `CCc1sc(-c2ccc(SC)cc2)nc1C1C(=O)C(C)(C)OC(C)(C)C1=O` 0%

Try this compound too: `CCc1sc(-c2ccc(Cl)c(F)c2)nc1C1C(=O)C(C)(C)OC(C)(C)C1=O` 0%

Similarly, `CCc1sc(-c2ccc(Cl)cc2F)nc1C1C(=O)C(C)(C)OC(C)(C)C1=O` ? 20%

What would you report for `Cc1sc(-c2ccc(Cl)c(F)c2)nc1C1C(=O)C(C)(C)OC(C)(C)C1=O` ? 0%

Please give the result for `Cc1sc(-c2ccc(Br)cn2)nc1C1=C(OC(=O)C2CC2)C(C)(C)OC(C)(C)C1=O` too. 0%

Please give the result for CCc1sc(-c2ccc(Cl)cc2)nc1C1C(=O)C2CCC(C)(O2)C1=O (stereo not shown) too. 0%

Please do the same for `CC(=O)OC1=C(c2nc(-c3ccc(Br)cc3C)sc2C)C(=O)C(C)(C)OC1(C)C` as well. 0%

Thanks! And `Cc1cc(Cl)ccc1-c1nc(C2C(=O)C(C)(C)C(=O)C(C)(C)C2=O)c(C)s1` ? 0%

Could you do the same for `Cc1sc(OCc2cnc(Br)s2)nc1C1C(=O)C(C)(C)OC(C)(C)C1=O` , please? 0%

Proceed to `Cc1sc(-c2ccc(Cl)cc2F)nc1C1C(=O)C(C)(C)OC(C)(C)C1=O` 0%

Likewise for `Cc1sc(-c2ccc(Br)cn2)nc1C1C(=O)C(C)(C)OC(C)(C)C1=O` ? 0%

Again, but for `CCc1sc(-c2ccc(Br)cc2)nc1C1C(=O)C(C)(C)OC(C)(C)C1=O` 0%

And then `Cc1sc(-c2ccc(OC(F)F)cc2)nc1C1C(=O)C(C)(C)OC(C)(C)C1=O` , what is it? 0%

Item: `CCc1sc(-c2ccc(Br)cc2F)nc1C1C(=O)C(C)(C)OC(C)(C)C1=O` 20%

Cool, now `Cc1cc(Br)ccc1-c1nc(C2C(=O)C(C)(C)OC(C)(C)C2=O)c(C)s1` 20%

Next up: `Cc1sc(-c2ccc(Br)cc2F)nc1C1C(=O)C(C)(C)OC(C)(C)C1=O` 0%

For `CC(=O)OC1=C(c2nc(-c3ccc(Br)cn3)sc2C)C(=O)C(C)(C)OC1(C)C` then? 0%

What about this compound? `Cc1sc(-c2ccc(OC(F)F)cc2Cl)nc1C1C(=O)C(C)(C)OC(C)(C)C1=O` 0%

Request: `Cc1sc(-c2ccc(Cl)cc2F)nc1C1C(=O)C(C)(C)C(=O)C(C)(C)C1=O` 0%
